Entries and their IC50 values follow.
Biological target: HSP90 (Homo sapiens (Human), UniProt P07900)
Experiment: HSP90 competition binding (fluorescence polarization) assay with FITC labeled GM
Details: 24 hours of incubation at 4° C.

Record excerpt, results attached:
> print(dat)
                                   molecule  observable            result
1  N#CCCCn1c(Sc2cc3c(cc2Br)OCO3)nc2c(N)nccc21 [Compound 27]        IC50  1000 to 10000 nM
2  CCCCCn1c(Sc2cc3c(cc2I)OCO3)nc2c(N)nccc21 [Compound 4]        IC50    100 to 1000 nM
3  C#CCCCn1c(Sc2cc3c(cc2I)OCCO3)nc2c(N)nccc21 [Compound 7]        IC50    100 to 1000 nM
4  CCC(CC)NCCCn1c(Sc2cc3c(cc2I)OCO3)nc2c(N)nccc21 [Compound 60]        IC50    100 to 1000 nM
5  C#CCCCn1c(Sc2cc(OC)ccc2[N+](=O)[O-])nc2c(N)nccc21 [Compound 17]        IC50        > 10000 nM
6  C#CCCCn1c(Sc2cccc(OC)c2)nc2c(N)nccc21 [Compound 11]        IC50        > 10000 nM
7  C#CCCCn1c(Sc2ccc3c(c2)CCO3)nc2c(N)nccc21 [Compound 9]        IC50        > 10000 nM
8  C#CCCCn1c(Sc2cc(OC)ccc2Cl)nc2c(N)nccc21 [Compound 14]        IC50  1000 to 10000 nM

-- ask Supply reported IC50 belonging to this molecule: CC(C)(C)NCCCn1c(Sc2cc3c(cc2I)OCO3)nc2c(N)nccc21 [Compound 58]
-- reply 100 to 1000 nM

-- ask Complete the entry with IC50 for C#CCCCn1c(Sc2cc(OC)ccc2I)nc2c(N)nccc21 [Compound 12]
-- reply 100 to 1000 nM

-- ask Consider the molecule NC(=O)CCCn1c(Sc2cc3c(cc2I)OCO3)nc2c(N)nccc21 [Compound 66] . State its measured IC50.
-- reply 100 to 1000 nM

-- ask Specify IC50 for CC(=O)NCCCn1c(Sc2cc3c(cc2I)OCO3)nc2c(N)nccc21 [Compound 74] and stop.
-- reply 100 to 1000 nM

-- ask State its IC50 for this molecule: COc1ccc(I)c(Sc2nc3c(N)nccc3n2CCOC(C)C)c1 [Compound 64]
-- reply 1000 to 10000 nM

-- ask Output measured IC50 for this item: CN(C)Cc1cc2c(cc1Sc1nc3c(N)nccc3n1CCNCC(C)(C)C)OCO2 [Compound 115]
-- reply > 10000 nM

-- ask Complete the entry with IC50 for COc1ccc(Br)c(Sc2nc3c(N)nccc3n2CCCNC(C)C)c1 [Compound 53]
-- reply 1000 to 10000 nM

-- ask Output measured IC50 for this item: C#CCCCCn1c(Sc2cc3c(cc2Br)OCO3)nc2c(N)nccc21 [Compound 24]
-- reply 1000 to 10000 nM

-- ask State, in one line, measured IC50 of CC(C)OCCn1c(Sc2cc3c(cc2Br)OCO3)nc2c(N)nccc21 [Compound 61]
-- reply 100 to 1000 nM

-- ask Note IC50 for the molecule shown: C#CCCCn1c(Sc2cc(OC)ccc2Br)nc2c(N)nccc21 [Compound 13]
-- reply 1000 to 10000 nM

-- ask Provide measured IC50 value, entry: N#CCCCCn1c(Sc2cc3c(cc2Br)OCO3)nc2c(N)nccc21 [Compound 29]
-- reply 1000 to 10000 nM

-- ask Identify measured IC50 corresponding to C#CCCCn1c(Sc2cc(OC)ccc2C#N)nc2c(N)nccc21 [Compound 18]
-- reply 1000 to 10000 nM

-- ask Supply recorded IC50 for NC(=O)CCCCn1c(Sc2cc3c(cc2I)OCO3)nc2c(N)nccc21 [Compound 68] here.
-- reply 100 to 1000 nM

-- ask Given NC(=O)CCCCCn1c(Sc2cc3c(cc2I)OCO3)nc2c(N)nccc21 [Compound 70] , respond with its IC50.
-- reply 100 to 1000 nM

-- ask Give IC50 for the following molecule: CC(=O)NCCn1c(Sc2cc3c(cc2I)OCO3)nc2c(N)nccc21 [Compound 72]
-- reply 100 to 1000 nM

-- ask Please indicate IC50 recorded for COc1ccc(I)c(Sc2nc3c(N)nccc3n2CCCNC(C)C)c1 [Compound 54]
-- reply 1000 to 10000 nM

-- ask Determine its reported IC50: CC(C)NCCCn1c(Sc2cc3c(cc2I)OCO3)nc2c(N)nccc21 [Compound 52]
-- reply 100 to 1000 nM
